Target: NAMPT enzyme (Homo sapiens (Human))
Assay: Enzyme Assay and NMN Detection (NAMPT reaction, fluorescence detection of NMN)
Type: biochemical
Conditions: Table B-6; NAMPT activation, NMN formation
pEC50: −log10 of the molar value.
valueType: pEC50

O=C(NCc1ccncc1)Nc1ccc(S(=O)(=O)c2ccc(OC(F)(F)F)cc2)cc1
5.70 to 7.00
O=C(NCc1ccncc1)Nc1ccc(-c2ncc(Cc3ccccc3)s2)cc1
4.70 to 5.30
COc1ccccc1-c1ccccc1S(=O)(=O)c1ccc(NC(=O)NCc2ccncc2)cc1
4.70 to 5.30

Query :: # input molecule: O=C(NCc1ccncc1)Nc1ccc(S(=O)(=O)c2ccccc2-c2ccncc2)cc1 ; wanted: its pEC50
Result :: 5.70 to 7.00

Query :: # query: pEC50 of entry Cc1cccc(CS(=O)(=O)Nc2ccc(NC(=O)NCc3ccncc3)cc2)c1
Result :: > 7.00

Query :: Which pEC50 value is on record for O=C(NCc1ccncc1)Nc1ccc(S(=O)(=O)c2cccc(F)c2)cc1 ?
Result :: > 7.00

Query :: Would you kindly share the measured pEC50 for Cc1ccccc1-c1ccccc1S(=O)(=O)c1ccc(NC(=O)NCc2ccncc2)cc1 ?
Result :: 5.70 to 7.00

Query :: Recorded pEC50 for O=C(NCc1ccncc1)Nc1ccc(S(=O)(=O)c2ccccc2OC(F)(F)F)cc1 , please?
Result :: > 7.00

---

Target: NAMPT enzyme (Homo sapiens (Human), UniProt P43490)
Sequence (P43490 whole entry, species assumed): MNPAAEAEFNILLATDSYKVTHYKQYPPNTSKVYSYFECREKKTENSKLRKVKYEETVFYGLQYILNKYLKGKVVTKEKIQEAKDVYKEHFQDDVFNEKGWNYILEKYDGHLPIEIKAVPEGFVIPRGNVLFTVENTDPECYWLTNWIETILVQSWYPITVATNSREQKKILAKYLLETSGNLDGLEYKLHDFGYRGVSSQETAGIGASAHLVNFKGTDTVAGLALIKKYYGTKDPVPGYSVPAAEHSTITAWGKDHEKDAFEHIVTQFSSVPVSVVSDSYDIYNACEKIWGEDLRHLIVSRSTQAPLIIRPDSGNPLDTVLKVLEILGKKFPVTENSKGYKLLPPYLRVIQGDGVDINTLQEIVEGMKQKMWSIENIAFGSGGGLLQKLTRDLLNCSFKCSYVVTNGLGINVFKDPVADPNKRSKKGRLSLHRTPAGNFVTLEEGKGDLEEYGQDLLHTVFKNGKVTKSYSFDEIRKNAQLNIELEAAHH
Assay: Enzyme Assay and NMN Detection (NAMPT reaction, fluorescence detection of NMN)
Assay type: biochemical
Conditions: Table B-1; NAMPT activation, NMN formation
pEC50: −log10 of the molar value.
Entries and their pEC50

O=C(NCc1cn[nH]c1)Nc1ccc(S(=O)(=O)c2ccccc2)cc1
> 7.00
COc1ccc(Cn2cc(CNC(=O)Nc3ccc(NS(=O)(=O)c4ccccc4)cc3)cn2)cc1
< 4.70
O=C(NCc1cn[nH]c1)Nc1ccc(S(=O)(=O)NCC2CCC2)cc1
5.70 to 7.00

From here, focus on the item given below.
Query :: Given CCOC(=O)c1ccc(NC(=O)NCc2ccnn2C)cc1 , state its recorded pEC50.
Result :: < 4.70

---

Molecular target: UniProt:P43490
Assay: Enzyme Assay and NMN Detection (NAMPT reaction, fluorescence detection of NMN)
Format: biochemical
Settings: Table B-6; NAMPT activation, NMN formation
pEC50: −log10 of the molar value.
valueType: pEC50

The following compounds have reported results that may help.
Cc1ccc2c(-c3ccc(NC(=O)NCc4ccncc4)cc3)nn(C)c2c1
5.70 to 7.00
Cc1ccc2c(c1)c(-c1ccc(NC(=O)NCc3ccncc3)cc1)nn2C
5.70 to 7.00
Cc1ccccc1S(=O)(=O)c1ccc(NC(=O)NCc2ccncc2)cc1
5.70 to 7.00
O=C(NCc1ccncc1)Nc1ccc(-c2cccc3scnc23)cc1
5.70 to 7.00

Query :: Would you kindly share the measured pEC50 for Cc1cccc2c(-c3ccc(NC(=O)NCc4ccncc4)cc3)nn(C)c12 ?
Result :: 5.70 to 7.00

Query :: So what's the measured pEC50 for this one? Cn1nc(-c2ccc(NC(=O)NCc3ccncc3)cc2)c2cnccc21
Result :: 4.70 to 5.30

Query :: Consider the compound shown here: Cc1ccc(CS(=O)(=O)Nc2ccc(NC(=O)NCc3ccncc3)cc2)cc1 What is its recorded pEC50?
Result :: > 7.00
